All figures here come from patent US8580556B2.

- Tested on: tetA promoter (PtetA)-lacZ reporter in E. coli KM3
- Assay type: cell-based
- study_conditions: Table 6, reverse repressor hits; no inducer
Flag rule - relative β-galactosidase activity, inducer Blank less than 2 flags T; the remaining entries get F.

Answered cases to consult:
molecule	category_label
L1-34: library L1 reverse repressor hit (SEQ ID NO: 1206-1213) (protein, rSuR L1-34) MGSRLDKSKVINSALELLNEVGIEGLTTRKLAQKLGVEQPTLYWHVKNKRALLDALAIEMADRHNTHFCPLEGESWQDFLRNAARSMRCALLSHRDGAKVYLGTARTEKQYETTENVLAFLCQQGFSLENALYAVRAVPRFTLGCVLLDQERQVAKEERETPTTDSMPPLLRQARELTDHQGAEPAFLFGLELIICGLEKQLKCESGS	F
L1-39: library L1 reverse repressor hit (SEQ ID NO: 1206-1213) (protein, rSuR L1-39) MGSRLDKSKVINSALELLNEVGIEGLTTRKLAQKLGVEQPTLYWHVKNKRALLDALAIEMMDRHQTHFCPLEGESWQDFLRNTAKSYRCALLSHRDGAKVILGTRWTEKQYETRENVLAFLCQQGFSLENALYAWAAVGPFTLGCVLRDQERQVAKEERETPTTDSMPPLLRQALELMDHQGAEPAFLFGLELIICGLEKQLKCESGS	F
L1-36: library L1 reverse repressor hit (SEQ ID NO: 1206-1213) (protein, rSuR L1-36) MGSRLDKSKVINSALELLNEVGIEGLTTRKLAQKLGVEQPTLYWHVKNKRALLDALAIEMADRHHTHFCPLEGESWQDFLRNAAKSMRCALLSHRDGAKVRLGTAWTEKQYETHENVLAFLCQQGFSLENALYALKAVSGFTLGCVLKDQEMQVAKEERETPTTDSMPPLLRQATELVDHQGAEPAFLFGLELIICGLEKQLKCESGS	T
L1-33: library L1 reverse repressor hit (SEQ ID NO: 1206-1213) (protein, rSuR L1-33) MGSRLDKSKVINSALELLNEVGIEGLTTRKLAQKLGVEQPTLYWHVKNKRALLDALAIEMLDRHATHFCPLEGESWQDFLRNNAKSMRCALLSHRDGAKVQLGTAATEKQYETLENKLAFLCQQGFSLENALYAHSAVTQFTLGCVLRDQEGQVAKEERETPTTDSMPPLLRQARELRDHQGAEPAFLFGLELIICGLEKQLKCESGS	F

For the next question, use this molecule.
*Q* In plain terms, does L1-25: library L1 reverse repressor hit (SEQ ID NO: 1206-1213) (protein, rSuR L1-25) MGSRLDKSKVINSALELLNEVGIEGLTTRKLAQKLGVEQPTLYWHVKNKRALLDALAIEMLDRHATHFCPLEGESWQDFLRNTAKSMRCALLSHRDGAKVLLGTATTEKQYETLENLLAFLYQQGFSLENALYAWQAVWRFTLGCVLIDQETQVAKEERETPTTDSMPPLLRQAVELKDHQGAEPAFLFGLELIICGLEKQLKCETGS come in under 2 for relative β-galactosidase activity, inducer Blank?
*A* T
